Test: ACEA_ER_AUC_viability: ACEA Biosciences xCELLigence Real-Time Cell Analysis on Estrogen Receptor Agonism for Viability (AID 2283782);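 further: continuous compound exposure with impedance area under curve over 80 h; hit means loss of impedance signal meaning reduced cell growth or viability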
Results filed as inconclusive are left out. The source made the active and inactive calls. How the source made its calls: active means hit-call score of the fitted dose curve at least 0.9, where 1 is the maximum; inconclusive means response in the unintended direction; inactive means score below 0.9.
Possible outcomes: active, inactive

{"molecule smiles": "CC1(C)NC(=O)N(c2ccc([N+](=O)[O-])c(C(F)(F)F)c2)C1=O", "class name": "inactive"}
{"molecule smiles": "CCCCCCCCOc1ccc(C(=O)c2ccccc2)c(O)c1", "class name": "inactive"}
{"molecule smiles": "CCN(Cc1cccc(S(=O)(=O)O)c1)c1ccc(C(=C2C=CC(=[N+](CC)Cc3cccc(S(=O)(=O)O)c3)C=C2)c2ccccc2S(=O)(=O)[O-])cc1", "class name": "inactive"}
{"molecule smiles": "CCCCCCCCOC(=O)c1cc(O)c(O)c(O)c1", "class name": "active"}
{"molecule smiles": "Cc1cn([C@H]2C[C@H](N=[N+]=[N-])[C@@H](CO)O2)c(=O)[nH]c1=O", "class name": "inactive"}
